biological target: mTOR kinase (Homo sapiens, UniProt P42345)
pIC50: −log10 of the molar value.
VALUE_KIND: pIC50

Reference set (5 entries):
{"MOLECULE": "CN(C)C(=O)c1ccc(NC(=O)Nc2ccc(-c3nc(N4CCOCC4)c4ccc(-c5ccco5)cc4n3)cc2)c(Cl)c1 [Example 171]", "pIC50": "5.00 to 6.70"}
{"MOLECULE": "CN(C)C(=O)c1ccc(NC(=O)Nc2ccc(-c3nc(N4CCOCC4)c4ccc(-c5ccc(C#N)o5)cc4n3)c(F)c2)cc1 [Example 12]", "pIC50": "> 7.30"}
{"MOLECULE": "CN(C)C(=O)c1ccc(NC(=O)Nc2ccc(-c3nc(N4CCOCC4)c4ccc(-c5cccc(N(C)C)c5)cc4n3)cc2)cc1 [Example 50]", "pIC50": "6.70 to 7.30"}
{"MOLECULE": "CC(O)c1ccc(-c2ccc3c(N4CCOCC4)nc(-c4ccc(NC(=O)Nc5ccc(C(=O)N(C)C)cc5)c(F)c4)nc3c2)o1 (stereo not drawn) [Example 214]", "pIC50": "> 7.30"}
{"MOLECULE": "CN(C)C(=O)c1ccc(NC(=O)Nc2ccc(-c3nc(N4CCOCC4)c4ncc(-c5cnn(C)c5)cc4n3)cc2F)cn1 [Example 124]", "pIC50": "> 7.30"}

Alright, here's another molecule for you.
Query: # return pIC50 for CC1CN(c2nc(-c3ccc(NC(=O)Nc4ccc(C(=O)N(C)C)cc4)cc3)nc3cc(-c4cncnc4)ccc23)CC(C)O1 (stereo not drawn) [Example 128] , test system: mTOR kinase (Homo sapiens, UniProt P42345)
Result: > 7.30
